Recorded inhibition at 20 µM by entry
- target-of-assay: OCT3 (Homo sapiens, UniProt O75751)
- Sequence (O75751 whole entry): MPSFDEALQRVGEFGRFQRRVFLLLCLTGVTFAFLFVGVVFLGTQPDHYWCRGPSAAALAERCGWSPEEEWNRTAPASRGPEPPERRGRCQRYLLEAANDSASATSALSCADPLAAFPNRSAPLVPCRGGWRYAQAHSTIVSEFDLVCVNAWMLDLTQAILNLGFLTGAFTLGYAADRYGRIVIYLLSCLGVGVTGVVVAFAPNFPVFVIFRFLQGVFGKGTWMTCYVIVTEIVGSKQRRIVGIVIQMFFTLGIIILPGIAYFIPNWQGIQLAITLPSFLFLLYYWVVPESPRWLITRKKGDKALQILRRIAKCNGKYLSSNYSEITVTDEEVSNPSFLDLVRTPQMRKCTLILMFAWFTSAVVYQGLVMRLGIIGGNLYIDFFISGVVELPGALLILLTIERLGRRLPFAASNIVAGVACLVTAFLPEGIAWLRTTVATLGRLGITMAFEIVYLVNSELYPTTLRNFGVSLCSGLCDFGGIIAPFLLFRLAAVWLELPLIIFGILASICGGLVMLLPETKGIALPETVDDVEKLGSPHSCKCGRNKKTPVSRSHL
- assay-comment: High throughput screen: inhibition of OCT3-mediated ASP+ uptake in HEK-293 cells stably expressing OCT3
- Type: cell-based
- run-parameters: HEK293

{"compound": "O=C(O)c1ccccc1Nc1cccc(C(F)(F)F)c1 [flufenamic acid]", "inhibition at 20 µM (%)": 60.6}
{"compound": "COc1ccc2[nH]c([S+]([O-])Cc3ncc(C)c(OC)c3C)nc2c1 (centres unmarked) [omeprazole]", "inhibition at 20 µM (%)": 64.1}
{"compound": "CC[C@H]1CN2CCc3cc(OC)c(OC)cc3[C@@H]2C[C@@H]1C[C@H]1NCCc2cc(OC)c(OC)cc21 [emetine]", "inhibition at 20 µM (%)": 82.7}
{"compound": "NC(N)=Nc1nc(CSCCC(N)=NS(N)(=O)=O)cs1 [famotidine]", "inhibition at 20 µM (%)": 66.9}
{"compound": "O=C1CCc2cc(OCCCCc3nnnn3C3CCCCC3)ccc2N1 [cilostazol]", "inhibition at 20 µM (%)": 93.8}
{"compound": "Cc1oncc1C(=O)Nc1ccc(C(F)(F)F)cc1 [leflunomide]", "inhibition at 20 µM (%)": 50.5}
{"compound": "CC(=O)S[C@@H]1CC2=CC(=O)CC[C@]2(C)[C@H]2CC[C@@]3(C)[C@@H](CC[C@@]34CCC(=O)O4)[C@H]12 [spironolactone]", "inhibition at 20 µM (%)": 82.8}
{"compound": "C[C@H]1[C@H](NC(=O)/C(=N\\OC(C)(C)C(=O)O)c2csc(N)n2)C(=O)N1S(=O)(=O)O [aztreonam]", "inhibition at 20 µM (%)": 87.1}

* * *

- target-of-assay: OCT3 (Homo sapiens, UniProt O75751)
- assay-comment: High throughput screen: inhibition of OCT3-mediated ASP+ uptake in HEK-293 cells stably expressing OCT3
- Type: cell-based
- run-parameters: HEK293
Short version: inhibition at 20 µM at least 80% is class 1, less is class 0.

{"compound": "CC(=O)N1CCN(c2ccc(OCC3COC(Cn4ccnc4)(c4ccc(Cl)cc4Cl)O3)cc2)CC1 (stereo not drawn) [ketoconazole]", "assigned-label": "class 1"}
{"compound": "C=C1C[C@@H]2[C@H](CC[C@]3(C)C(=O)CC[C@@H]23)[C@@]2(C)C=CC(=O)C=C12 [exemestane]", "assigned-label": "class 1"}
{"compound": "CCCNCC(O)COc1ccccc1C(=O)CCc1ccccc1 (stereo not drawn) [propafenone]", "assigned-label": "class 0"}
{"compound": "Cc1onc(-c2ccccc2)c1-c1ccc(S(N)(=O)=O)cc1 [valdecoxib]", "assigned-label": "class 0"}
{"compound": "O=c1n(CCCN2CCN(c3cccc(Cl)c3)CC2)nc2ccccn12 [trazodone]", "assigned-label": "class 1"}

* * *

- target-of-assay: OCT3 (Homo sapiens)
- assay-comment: IC50 determination against OCT3-mediated [14C]metformin uptake in HEK-293 cells overexpressing OCT3
- Type: cell-based
pIC50: −log10 of the molar value.
Recorded pIC50 by entry
endpoint: pIC50

{"molecule": "O=c1n(CCCN2CCN(c3cccc(Cl)c3)CC2)nc2ccccn12", "endpoint": "pIC50", "recorded-result": 5.60}
{"molecule": "[H]/N=C(\\N/C(=N/[H])NCCCCCCNC(=N)NC(=N)Nc1ccc(Cl)cc1)Nc1ccc(Cl)cc1", "endpoint": "pIC50", "recorded-result": 6.40}
{"molecule": "N=C(N)N/N=C/c1c(Cl)cccc1Cl", "endpoint": "pIC50", "recorded-result": 5.96}
{"molecule": "N=C(N)NC(=O)c1nc(Cl)c(N)nc1N [amiloride]", "endpoint": "pIC50", "recorded-result": 5.52}
{"molecule": "CCCc1nc2c(C)cc(-c3nc4ccccc4n3C)cc2n1Cc1ccc(-c2ccccc2C(=O)O)cc1", "endpoint": "pIC50", "recorded-result": 5.41}
{"molecule": "COc1ccc(Cc2nccc3cc(OC)c(OC)cc23)cc1OC", "endpoint": "pIC50", "recorded-result": 5.92}
